Test system: NCI-H23 complex spheroids with HUVEC/MSC, viability
Experiment: Anticancer human tumor NCI-H23 cell line growth inhibition [RAS];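 further: spheroids exposed to compound for 7 days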
Conditions: curve of first compound; second compound 1 µM
Text: RAS pathway inhibitors in Combinations in Complex Spheroids A high-throughput screen of multi-cell type tumor spheroids was designed to identify active combinations of RAS pathway inhibitors and targeted small molecules. Complex spheroids include a stromal component modeled by human endothelial cells (HUVEC) and fibroblasts modeled by human mesenchymal stem cells (MSCs). […] Compounds. […] If the clinical Cmax for an agent had not been determined, the highest concentration tested was 10 microM. […]
resultType: pIC50
The value called pIC50 is obtained by taking minus log10 of the concentration in mol/L.

Q: For CC1(C)CCC(Nc2ncc(C(F)(F)F)c(-c3c[nH]c4c(P(C)(C)=O)c(C#N)ccc34)n2)CN1 (configuration not stated) + C#Cc1c(F)ccc2cc(O)cc(-c3ncc4c(N5CC6CCC(C5)N6)nc(OCC56CCCN5CC(F)C6)nc4c3F)c12 , what is its reported pIC50?
A: 8.23

Q: Give its pIC50 value. Item: Cc1nc(N2CCC3(CC2)COC(C)C3N)c(CO)nc1Sc1ccnc(N)c1Cl (configuration not stated) + C#Cc1c(F)ccc2cc(O)cc(-c3ncc4c(N5CC6CCC(C5)N6)nc(OCC56CCCN5CC(F)C6)nc4c3F)c12
A: 6.67

Q: Looking for the measured pIC50 of C=CC(=O)N1CCN(c2nc(OCC3CCCN3C)nc3c(F)c(-c4nc(N)cc(C)c4C(F)(F)F)c(Cl)cc23)C(C)C1 (configuration not stated) + C#Cc1c(F)ccc2cc(O)cc(-c3ncc4c(N5CC6CCC(C5)N6)nc(OCC56CCCN5CC(F)C6)nc4c3F)c12 , can you help?
A: 7.86

Q: Form field: reported pIC50 of O=C(c1ccc(F)c(F)c1Nc1ccc(I)cc1F)N1CC(O)([C@@H]2CCCCN2)C1 + C#Cc1c(F)ccc2cc(O)cc(-c3ncc4c(N5CC6CCC(C5)N6)nc(OCC56CCCN5CC(F)C6)nc4c3F)c12
A: 7.17

Q: Entry CC1(O)CCCC1n1c(=O)c(C(F)F)cc2cnc(NC3CCN(S(C)(=O)=O)CC3)nc21 (configuration not stated) + C#Cc1c(F)ccc2cc(O)cc(-c3ncc4c(N5CC6CCC(C5)N6)nc(OCC56CCCN5CC(F)C6)nc4c3F)c12 : reported pIC50 = ?
A: 5.41

----------
System: NCI-H23 complex spheroids with HUVEC/MSC, viability
Assay: Anticancer human tumor NCI-H23 cell line growth inhibition [RAS]; active = viability on the fitted dose curve at most 10% of control; inactive = the rest;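 further: spheroids exposed to compound for 7 days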
Details: second compound 0.3 µM; first compound 0.0316 µM
Please answer using one outcome listed in Yes (active), No (inactive)

Q: Please state the recorded outcome for this compound: CC(=O)OC12COC1CC(O)C1(C)C(=O)C(O)C3=C(C)C(OC(=O)C(O)C(NC(=O)OC(C)(C)C)c4ccccc4)CC(O)(C(OC(=O)c4ccccc4)C21)C3(C)C (centres undefined) + CCn1c(-c2cccnc2C(C)OC)c2c3cc(ccc31)N1CCOC(CC(NC(=O)C(C(C)C)N(C)C(=O)C3(F)CCN(C(=O)C#CC(C)(C)N(C)C)CC3)C(=O)N3CCCC(N3)C(=O)OCC(C)(C)C2)C1
A: Yes

Q: # fetch the recorded call for CCN1CCN(Cc2ccc(Nc3ncc(F)c(-c4cc(F)c5nc(C)n(C(C)C)c5c4)n3)nc2)CC1 + CCn1c(-c2cccnc2C(C)OC)c2c3cc(ccc31)N1CCOC(CC(NC(=O)C(C(C)C)N(C)C(=O)C3(F)CCN(C(=O)C#CC(C)(C)N(C)C)CC3)C(=O)N3CCCC(N3)C(=O)OCC(C)(C)C2)C1 here
A: No

Q: Please state the recorded outcome for this compound: Cc1nc(N2CCC3(CC2)COC(C)C3N)c(CO)nc1Sc1ccnc(N)c1Cl (centres undefined) + CCn1c(-c2cc(N3CCN(C)CC3)cnc2C(C)OC)c2c3cc(ccc31)-c1csc(n1)CC(NC(=O)C1CC1C)C(=O)N1CCCC(N1)C(=O)OCC(C)(C)C2
A: No

Q: Would you mind telling me which call this test gave C[C@@H](NC(=O)c1ncnc(N)c1Cl)c1ncc(C(=O)Nc2cc(C(F)(F)F)c(Cl)cn2)s1 + CCn1c(-c2cccnc2C(C)OC)c2c3cc(ccc31)N1CCOC(CC(NC(=O)C(C(C)C)N(C)C(=O)C3(F)CCN(C(=O)C#CC(C)(C)N(C)C)CC3)C(=O)N3CCCC(N3)C(=O)OCC(C)(C)C2)C1 ?
A: No
